System: UO-31
experiment: NCI tumour cell line growth inhibition, 48 h
Calls of active or inactive are those of the source. No stated cut-off is given here; in the data, active = GI50 up to about 1.1 µM and inactive = higher.

compound	assayed system	GI50
C=CCn1c(=O)c(C(=O)Nc2nc(C34CC5CC(CC(C5)C3)C4)cs2)c(O)c2ccccc21	UO-31	31.8 µM (inactive)
Cc1ccc(NC(=O)C(=O)C(C(=O)c2ccc3ccccc3c2)C2OC(=O)c3ccccc32)c(C)c1 (configuration not stated)	UO-31	13.1 µM (inactive)
CC(C)(C)OC(=O)NC1CCC(C(C)(C)C)CC1 (configuration not stated)	UO-31	59.2 µM (inactive)
COc1ccc(/C=C2\CCC(CN3CCOCC3)C2=O)cc1 (configuration not stated)	UO-31	8.45 µM (inactive)
Cn1c(=O)c2nc(N3CCCCC3)cnc2n(C)c1=O	UO-31	> 100 µM (inactive)
O=C(Cn1c(=O)oc2ccccc21)N(c1ccccc1)c1ccccc1	UO-31	> 100 µM (inactive)
CCCCC(=O)N/S(=N/C(=O)c1ccccc1)C(Cl)(Cl)Cl (configuration not stated)	UO-31	> 100 µM (inactive)

###

Test system: HOP-92
experiment: NCI tumour cell line growth inhibition, 48 h
Calls of active or inactive are those of the source. Rule as the data show it: active = GI50 up to about 1.1 µM and inactive = higher.
Classes used: active, inactive

molecule	classification
O=C(OCc1ccccc1)N(CCCCN(CCCNCc1ccccc1)C(=O)OCc1ccccc1)CCCNCc1ccccc1	active
Cc1nc2ccccc2c(=O)n1NC(=O)c1ccc(N)cc1	inactive
c1ccc(CN2CCC(CNc3ncnc4ccccc34)C2)cc1 (stereo not given)	inactive
C[N+](C)=c1nc(N2CCOCC2)ss1	inactive
Cc1cc(N(CCC#N)CCC#N)ccc1/C=C(\N=[N+]=[N-])C(=O)NC(=O)COc1ccccc1	inactive
S=c1nc(Nc2ccc(Cl)cc2)c2c3c(sc2[nH]1)CCCC3	inactive
N=C(N)N/N=C/c1nc2sccn2c1[N+](=O)[O-]	inactive
C=CCC(SC)C1=C(C)C(=O)c2ccccc21 (stereo not given)	inactive
COc1cc(-c2[o+]c3cc(O)cc(O)c3cc2O)cc(O)c1O	inactive
Cc1ccccc1C(=O)N1CCN(C(=O)c2ccccc2C)CC1	inactive
COC1/C=C\C=C(/C)C(=O)NC2=CC(=O)C(N)=C(CC(C)CC(OC)C(O)C(C)C=C(C)C1OC(N)=O)C2=O (stereo not given)	active
O=c1[nH][nH]c(=S)c(=O)[nH]1	inactive
CC1(C)OC(=O)N(c2ccccc2)C12C=Cc1cc([N+](=O)[O-])ccc1O2 (stereo not given)	inactive
CCOC(=O)/C(C(=S)NC)=C(/N)N1CCCC1	inactive
CCNCCNC(=O)c1ccc(I)cc1	inactive

###

GI50 by entry:
System: HOP-62
experiment: NCI tumour cell line growth inhibition, 48 h
Calls of active or inactive are those of the source. Rule as the data show it: active = GI50 up to about 1.1 µM and inactive = higher.

compound	GI50
O=C(/C=C\c1ccccc1)Oc1ccc(/C=C2\CCC/C(=C\c3ccc(OC(=O)/C=C\c4ccccc4)cc3)C2=O)cc1	> 100 µM (inactive)
Clc1ccc(-c2c(C3=NCCN3)nnn2-c2ccccc2)cc1	> 100 µM (inactive)
CC(C)CCc1n[nH]c(=O)n1/N=C\c1ccccc1	> 100 µM (inactive)
O=S1(=O)c2cnccc2N=C(NCc2cccc3ccccc23)N1c1ccccc1	> 100 µM (inactive)
N=C(N)N/N=C/c1nc2sccn2c1[N+](=O)[O-]	37.8 µM (inactive)
COc1ccc(C(=O)C(CO)Oc2ccccc2OC)cc1OC (configuration not stated)	> 100 µM (inactive)
S=C(N/N=C\C=N/NC(=S)N1CCCCCC1)N1CCCCCC1	9.12 µM (inactive)
c1ccc(CN2CCC(CNc3ncnc4ccccc34)C2)cc1 (configuration not stated)	> 100 µM (inactive)
Cc1nc2ccccc2c(=O)n1NC(=O)c1ccc(N)cc1	> 100 µM (inactive)
O=C(O)CN1CCN(CC(=O)O)CCN(CC(=O)O)CC1	> 100 µM (inactive)
Cc1cc(=O)oc2cc(SC(=O)N(C)C)ccc12	> 100 µM (inactive)
Cc1ccc(SC2=C(N(C)C)C(=O)c3ccccc3C2=O)cc1	8.2 µM (inactive)
Cc1ccccc1C(=O)N1CCN(C(=O)c2ccccc2C)CC1	> 100 µM (inactive)
CC(=O)NC1C(O)C(O)C(CO)OC1n1nc(SCc2ccccc2)c(=O)[nH]c1=O (configuration not stated)	> 100 µM (inactive)
O=c1c2ccccc2n2cnc3ccc(NCCNCCO)c1c32	1.4 µM (inactive)
CN(C)CCNC(=O)C1COc2cc(-c3cc(=O)c4ccccc4o3)ccc2O1 (configuration not stated)	33 µM (inactive)
COc1cc(C(=O)C/C(CCCC(=O)Nc2ccccc2[N+](=O)[O-])=N/NC(=O)c2cc3ccccc3cc2O)ccc1O	94.8 µM (inactive)
